test: in vitro; details: human
Observed Property: viability at 24 h, 15 nM (%)
The figure you give is taken to be in %; do not add the unit.

Q. Query: viability at 24 h, 15 nM; subject: CC(C)C[C@H](NC(=O)[C@H](Cc1ccccc1)NC(=O)c1cnccn1)B(O)O
A. 98.8

====

assay: Cell viability (calcein-AM / ethidium homodimer-1), MCF-10A; conditions: human, Cell viability, MCF-10A; loperamide 10 μM alone; 24 h
Observed Property: viability at 24 h, 10 μM (%)
The figure you give is taken to be in %; do not add the unit.

Q. Query: viability at 24 h, 10 μM; subject: CN(C)C(=O)C(CCN1CCC(O)(c2ccc(Cl)cc2)CC1)(c1ccccc1)c1ccccc1 [Loperamide]
A. 97.7

====

test: in vitro; settings: human
Observed Property: viability at 24 h, 30 nM (%)
The figure you give is taken to be in %; do not add the unit.

Q. Query: viability at 24 h, 30 nM; subject: CC(C)C[C@H](NC(=O)[C@H](Cc1ccccc1)NC(=O)c1cnccn1)B(O)O [Bortezomib]
A. 94.6

====

experiment: in vitro; conditions: human
Observed Property: viability at 24 h, 50 nM (%)
The figure you give is taken to be in %; do not add the unit.

Q. Query: viability at 24 h, 50 nM; subject: CC(C)C[C@H](NC(=O)CNC(=O)c1cc(Cl)ccc1Cl)B1OC(=O)C(CC(=O)O)(CC(=O)O)O1
A. 98

Q. Please do the same for CC(C)C[C@H](NC(=O)[C@H](CCc1ccccc1)NC(=O)CN1CCOCC1)C(=O)N[C@@H](Cc1ccccc1)C(=O)N[C@@H](CC(C)C)C(=O)[C@@]1(C)CO1 as well.
A. 99.5

====

assay: Cell viability (calcein-AM / ethidium homodimer-1), MCF-10A; details: human, Cell viability, MCF-10A; loperamide 20 μM alone; 24 h
Observed Property: viability at 24 h, 20 μM (%)
The figure you give is taken to be in %; do not add the unit.

Q. Query: viability at 24 h, 20 μM; subject: CN(C)C(=O)C(CCN1CCC(O)(c2ccc(Cl)cc2)CC1)(c1ccccc1)c1ccccc1 [Loperamide]
A. 94.6

====

assay: in vitro; settings: human
Residues, ends and D or L forms follow the SMILES beside them. *: point of attachment. Cbz = O=C(OCc1ccccc1)*
Observed Property: viability at 24 h, 0.25 μM (%)
The figure you give is taken to be in %; do not add the unit.

Q. Query: viability at 24 h, 0.25 μM; subject: CC(C)C[C@@H](C=O)NC(=O)[C@H](CC(C)C)NC(=O)[C@H](CC(C)C)NC(=O)OCc1ccccc1 [MG132] (Cbz-Leu-Leu-Leu-aldehyde)
A. 95.2

====

assay: Cell viability (calcein-AM / ethidium homodimer-1), MCF-10A; conditions: human, Cell viability, MCF-10A; celastrol 0.5 μM alone; 24 h
Observed Property: viability at 24 h, 0.5 μM (%)
The figure you give is taken to be in %; do not add the unit.

Q. Query: viability at 24 h, 0.5 μM; subject: CC1=C(O)C(=O)C=C2C1=CC=C1[C@@]2(C)CC[C@@]2(C)[C@@H]3C[C@](C)(C(=O)O)CC[C@]3(C)CC[C@]12C
A. 95.9

====

assay: in vitro; settings: human
Observed Property: viability at 24 h, 20 μM
Hey, just the number and the unit after it is fine.

Q. Query: viability at 24 h, 20 μM; subject: COc1cc(/C=C/C(=O)CC(=O)/C=C/c2ccc(O)c(OC)c2)ccc1O
A. 95.9%

====

test: in vitro; settings: human
Residues, ends and D or L forms follow the SMILES beside them. *: point of attachment. Cbz = O=C(OCc1ccccc1)*
Observed Property: viability at 24 h, 0.5 μM (%)
The figure you give is taken to be in %; do not add the unit.

Q. Query: viability at 24 h, 0.5 μM; subject: CC(C)C[C@@H](C=O)NC(=O)[C@H](CC(C)C)NC(=O)[C@H](CC(C)C)NC(=O)OCc1ccccc1 [MG132] (Cbz-Leu-Leu-Leu-aldehyde)
A. 92.9
